system: giant foxtail; test: Test A pre-/postemergence herbicide test; type: in vivo, Setaria faberii; settings: Preemergence, 125 g ai/ha; visual rating on 0 to 100 scale (0 no effect, 100 complete control)
MEASUREMENT NAME: Foxtail, Giant plant response rating

O=C1NCC(c2ccc(F)c(F)c2)C1C(=O)Nc1ccccc1Br (stereo not drawn)    70
CC1NC(=O)C(C(=O)Nc2ccccc2F)C1c1ccc(F)c(F)c1 (mixture of isomers)    70
O=C1NCC(c2ccc(F)cc2)C1C(=O)Nc1ccccc1F (racemic)    90

----------
tested on: blackgrass; experiment: Test C pre-/postemergence herbicide test; type: in vivo, Alopecurus myosuroides; conditions: Preemergence, 31 g ai/ha; scale 0 to 100, 0 is no effect and 100 is complete control
Each entry below carries its recorded Blackgrass plant response rating.
MEASUREMENT NAME: Blackgrass plant response rating

O=C1NCC(c2ccc(F)c(C(F)(F)F)c2)C1C(=O)Nc1ccccc1C(F)(F)F (racemic)    30
O=C1NCC(c2cc(F)cc(F)c2)C1C(=O)Nc1cccc(F)c1F (racemic)    0
O=C1NCC(c2cccc(Cl)c2)C1C(=O)Nc1cccc(F)c1F (racemic)    45
O=C1NCC(c2cccc(Br)c2)C1C(=O)Nc1cccc(F)c1F (centres unmarked)    0
O=C1NCC(c2cccc(Br)c2)C1C(=O)Nc1ccccc1F (centres unmarked)    0
O=C1NCC(c2ccc(F)cc2)C1C(=O)Nc1cccc(F)c1F (racemic)    0
O=C1NCC(c2ccc(C(F)(F)F)c(F)c2)C1C(=O)Nc1ccccc1F (racemic)    0
CN1CC(c2ccc(F)c(F)c2)C(C(=O)Nc2ccccc2F)C1=O (centres unmarked)    0

----------
Tested on: sedge, umbrella
Test: Test B flooded paddy test
Format: in vivo, Cyperus difformis
Conditions: 250 g ai/ha, Flood; scale of 0 to 100 where 0 is no effect and 100 is complete control
Procedure: Plant species in the flooded paddy test selected from rice (Oryza sativa), sedge, umbrella (small-flower umbrella sedge, Cyperus difformis), ducksalad (Heteranthera limosa), and barnyardgrass (Echinochloa crus-galli) were grown to the 2-leaf stage for testing. […] Treated plants and controls were maintained in a greenhouse for 13 to 15 days, after which time all species were compared to controls and visually evaluated. […]
MEASUREMENT NAME: Plant response rating, Sedge, Umbrella

O=C1NCC(c2cc(F)c(F)c(F)c2)C1C(=O)Nc1ccccc1C(F)(F)F (racemic)    0
O=C1NCC(c2cccc(Br)c2)C1C(=O)Nc1ccccc1F (centres unmarked)    50
O=C1NCC(c2ccc(F)c(C(F)(F)F)c2)C1C(=O)Nc1ccccc1F (racemic)    0
N#Cc1cccc(C2CNC(=O)C2C(=O)Nc2cccc(F)c2F)c1 (racemic)    0
Cc1ccccc1NC(=O)C1C(=O)NCC1c1cc(F)c(F)c(F)c1 (racemic)    0

----------
Each entry below carries its recorded Plant response rating, Crabgrass, Large.
system: crabgrass, large; experiment: Test C pre-/postemergence herbicide test; format: in vivo, Digitaria sanguinalis; details: Postemergence; 250 g ai/ha; scale 0 to 100 (0 no effect, 100 complete control)
MEASUREMENT NAME: Plant response rating, Crabgrass, Large

O=C1NCC(c2cc(F)c(F)c(F)c2)C1C(=O)Nc1ccccc1F (racemic)    60
O=C1NCC(c2ccc(F)c(C(F)(F)F)c2)C1C(=O)Nc1ccccc1F (racemic)    75
O=C1NCC(c2cccc(C(F)(F)F)c2)C1C(=O)Nc1ccc(F)c(F)c1F (stereo not shown)    75
O=C1NCC(c2cccc(C(F)(F)F)c2)C1C(=O)Nc1cccc(Cl)c1F (stereo not shown)    70

----------
test system: blackgrass; assay: Test A postemergence herbicide test; type: in vivo, Alopecurus myosuroides; details: 125 g ai/ha, visual rating on 0 to 100 scale (0 no effect, 100 complete control), approx. 10 days
Each entry below carries its recorded Plant response rating, Blackgrass.
MEASUREMENT NAME: Plant response rating, Blackgrass

O=C1NCC(c2ccc(Cl)s2)C1C(=O)Nc1cccc(F)c1F (stereo not drawn) [Compound 294]    20
O=C1NCC(c2cccc(C(F)(F)F)c2)C1C(=O)Nc1cccc(Cl)c1F (stereo not drawn) [Compound 344]    0
O=C1NCC(c2cccc(C(F)(F)F)c2)C1C(=O)Nc1ccccc1Cl (stereo not drawn) [Compound 312]    40
CC(C)(C)c1cccc(C2CNC(=O)C2C(=O)Nc2ccccc2F)c1 (stereo not drawn) [Compound 347]    0
CN1CC(c2ccc(C(F)(F)F)cc2)C(C(=O)Nc2ccccc2F)C1=O (stereo not drawn) [Compound 304]    50
O=C1NCC(c2cnn(CC(F)(F)F)c2)C1C(=O)Nc1cccc(F)c1F (stereo not drawn) [Compound 299]    0
O=C1NCC(c2cc3ccccc3s2)C1C(=O)Nc1ccccc1F (stereo not drawn) [Compound 295]    0
CC1(c2ccccc2)CNC(=O)C1C(=O)Nc1ccccc1F (stereo not drawn) [Compound 301]    0
O=C1NCC(c2cccc(C(F)(F)F)c2)C1C(=O)Nc1ccc(F)c(F)c1F (stereo not drawn) [Compound 315]    40

----------
system: crabgrass, large; assay: Test C pre-/postemergence herbicide test; assay type: in vivo, Digitaria sanguinalis; conditions: Postemergence; 250 g ai/ha; scale 0 to 100 (0 no effect, 100 complete control)
MEASUREMENT NAME: Plant response rating, Crabgrass, Large

O=C1NCC(c2ccc(F)cc2)C1C(=O)Nc1cccc(F)c1F (racemic)    90
O=C1NCC(c2cccc(OC(F)F)c2)C1C(=O)Nc1ccccc1F (stereo not shown)    80
O=C1NCC(c2cccc(OC(F)F)c2)C1C(=O)Nc1ccc(F)c(F)c1F (stereo not shown)    85
Cc1cccc(NC(=O)C2C(=O)NCC2c2cccc(C(F)(F)F)c2)c1 (stereo not shown)    50
O=C1NCC(c2ccc(C(F)(F)F)cc2)C1C(=O)Nc1ccc(F)c(F)c1F (stereo not shown)    75
O=C1NCC(c2cccc(Br)c2)C1C(=O)Nc1cccc(F)c1F (stereo not shown)    65
O=C1NCC(c2ccccc2)C1C(=O)Nc1ccccc1F (racemic)    7

----------
tested on: johnsongrass; assay: Test C pre-/postemergence herbicide test; type: in vivo, Sorghum halepense; settings: Preemergence, 125 g ai/ha; scale 0 to 100 (0 no effect, 100 complete control)
MEASUREMENT NAME: Plant response rating, Johnsongrass

O=C1NCC(c2cc(F)c(F)c(F)c2)C1C(=O)Nc1ccccc1C(F)(F)F (racemic)    0
O=C1NCC(c2ccc(F)cc2)C1C(=O)Nc1ccccc1F (racemic)    0
O=C1NCC(c2cc(F)c(F)c(F)c2)C1C(=O)Nc1ccccc1F (racemic)    10
O=C1NCC(c2cccc(C(F)F)c2)C1C(=O)Nc1cccc(F)c1F (racemic)    30
O=C1NCC(c2ccc(C(F)(F)F)nc2)C1C(=O)Nc1ccccc1F (racemic)    0
O=C1NCC(c2cc(F)cc(F)c2)C1C(=O)Nc1cccc(F)c1F (racemic)    70
O=C1NCC(c2cc(F)cc(F)c2)C1C(=O)Nc1ccc(F)cc1F (racemic)    0
O=C1NCC(c2cccc(OC(F)(F)F)c2)C1C(=O)Nc1cccc(F)c1F (centres unmarked)    40
O=C1NCC(c2ccc(Cl)c(F)c2)C1C(=O)Nc1ccccc1F (centres unmarked)    0
CN1CC(c2ccc(F)c(F)c2)C(C(=O)Nc2ccccc2F)C1=O (centres unmarked)    45
O=C1NCC(c2cccc(C(F)(F)F)c2)C1C(=O)Nc1cccc(F)c1F (centres unmarked)    85

----------
tested on: morningglory; test: Test A pre-/postemergence herbicide test; assay type: in vivo, Ipomoea spp.; details: preemergence; 500 g ai/ha; 0 to 100 scale, 0 is no effect and 100 is complete control
MEASUREMENT NAME: Plant response rating, Morningglory

O=C1NCC(c2ccc(Cl)c(C(F)(F)F)c2)C1C(=O)Nc1ccccc1C(F)(F)F (racemic)    0
O=C1NCC(c2ccc(C(F)(F)F)nc2)C1C(=O)Nc1cccc(F)c1F (racemic)    0
O=C1NCC(c2ccc(C(F)(F)F)c(F)c2)C1C(=O)Nc1ccccc1F (racemic)    0
O=C1NCC(c2ccc(C(F)(F)F)c(Cl)c2)C1C(=O)Nc1cccc(F)c1F (racemic)    0
O=C1NCC(c2ccc(Cl)c(C(F)(F)F)c2)C1C(=O)Nc1cccc(F)c1F (racemic)    60

----------
Each entry below carries its recorded Plant response rating, Barnyardgrass.
system: barnyardgrass; experiment: Test C flooded paddy test; type: in vivo, Echinochloa crus-galli; conditions: Flood, 250 g ai/ha; scale of 0 to 100 where 0 is no effect and 100 is complete control; 13 to 15 days
MEASUREMENT NAME: Plant response rating, Barnyardgrass

CC(C)(C)c1cccc(C2CNC(=O)C2C(=O)Nc2cccc(F)c2F)c1 (racemic)    25
Cc1cccc(NC(=O)C2C(=O)NCC2c2cccc(C(F)(F)F)c2)c1 (stereo not shown)    30
O=C1NCC(c2cccc(C(F)(F)F)c2)C1C(=O)Nc1ccccc1Cl (stereo not shown)    60
O=C1NCC(c2ccc(C(F)(F)F)nc2)C1C(=O)Nc1cccc(F)c1F (racemic)    80
